# SYSTEM: human orexin 1 receptors (Homo sapiens)
# Construct: expressed in transfected cells; host or cells: CHO cells (membrane preparation)
# Sequence (O43613 whole entry): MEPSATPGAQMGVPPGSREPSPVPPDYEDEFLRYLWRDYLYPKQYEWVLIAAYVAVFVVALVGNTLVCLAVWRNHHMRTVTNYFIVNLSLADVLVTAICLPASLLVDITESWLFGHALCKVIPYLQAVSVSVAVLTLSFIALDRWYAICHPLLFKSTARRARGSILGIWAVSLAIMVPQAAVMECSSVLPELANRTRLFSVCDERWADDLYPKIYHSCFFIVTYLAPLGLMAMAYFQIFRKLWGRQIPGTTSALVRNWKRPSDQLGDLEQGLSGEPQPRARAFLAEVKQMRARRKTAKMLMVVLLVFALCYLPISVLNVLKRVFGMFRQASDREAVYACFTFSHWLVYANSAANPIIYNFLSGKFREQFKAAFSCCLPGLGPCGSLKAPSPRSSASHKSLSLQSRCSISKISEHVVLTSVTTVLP
# ASSAY PROTOCOL: in vitro binding: displacement of radio-iodinated orexin A on CHO cell membrane preparation
# ASSAY SETUP: membrane preparation of CHO cells expressing human orexin 1 receptors, read-out: IC50 OX 1
MEASUREMENT TYPE: pIC50
Numbers only, as −log10 of the molar value.

The cases that follow already have their pIC50 on record.
Cc1ccc(S(=O)(=O)N(CC(N)=O)c2ccc(Cl)cc2C(O)c2ccccc2Cl)cc1C (stereo not drawn); 5.82
COc1ccc(S(=O)(=O)N(Cc2nccn2C)c2ccc(Cl)cc2Cc2ccccc2Cl)cc1OC; 6.05
CCOC(=O)CN(c1ccc(Cl)cc1C(O)c1ccccc1Cl)S(=O)(=O)c1ccc(OC)c(OC)c1 (stereo not drawn); 6.35
COc1cccc(S(=O)(=O)N(CC(N)=O)c2ccc(Cl)cc2C(O)c2ccccc2Cl)c1 (stereo not drawn); 6.02
COc1ccc(N(CC(N)=O)S(=O)(=O)c2ccc(OC)c(OC)c2)c(Cc2ccccc2Cl)c1; 5.32

INPUT: Give recorded pIC50. COc1ccc(S(=O)(=O)N(CC(N)=O)c2cc(N(C)C)ccc2Cc2c(F)cccc2F)cc1OC
OUTPUT: 5.73

###

# SYSTEM: orexin 2 receptors (Homo sapiens, UniProt O43614)
# Sequence (O43614 1-444): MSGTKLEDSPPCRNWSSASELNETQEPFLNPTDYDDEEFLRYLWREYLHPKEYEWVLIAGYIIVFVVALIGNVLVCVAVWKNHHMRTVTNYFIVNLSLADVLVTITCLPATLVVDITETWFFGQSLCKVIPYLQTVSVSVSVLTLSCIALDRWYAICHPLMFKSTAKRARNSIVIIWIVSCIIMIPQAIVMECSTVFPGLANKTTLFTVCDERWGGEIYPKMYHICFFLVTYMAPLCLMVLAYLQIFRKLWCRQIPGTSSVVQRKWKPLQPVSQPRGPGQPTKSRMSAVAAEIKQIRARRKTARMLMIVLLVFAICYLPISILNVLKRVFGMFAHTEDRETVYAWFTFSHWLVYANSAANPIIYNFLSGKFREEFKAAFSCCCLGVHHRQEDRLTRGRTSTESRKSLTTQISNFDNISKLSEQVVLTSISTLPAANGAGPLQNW
# ASSAY PROTOCOL: measurement of intracellular calcium (FLIPR), antagonist test against orexin B
# Assay type: cell-based
# ASSAY SETUP: 30 minutes preincubation before addition of 0.25 nM orexin B, Fluo-4 AM, read-out: Measurement of [Ca^2+]i IC50 OX 2 - FLIPR
# Protocol: The agonist or antagonist nature of the compounds is determined in vitro in a test of measurement of intracellular calcium (FLIPR) on a cell preparation expressing the orexin 2 receptors, according to the general technique described in Sullivan et al., Methods Mol. Biol., 1999, vol. 114, 125-133, using 1 μM of Fluo-4 AM as fluorescent calcium indicator.
Lab note - cut at 10 nM for IC50: T if strictly below, F if not.

COc1ccc(S(=O)(=O)N(Cc2nccn2C)c2ccc(Cl)cc2Cc2ccccc2Cl)cc1OC; F
Cc1ccc(S(=O)(=O)N(CC(N)=O)c2ccc(Cl)cc2C(O)c2ccccc2Cl)cc1C (stereo not drawn); F

Please turn your attention to the following entry.
INPUT: Given the entry COc1ccc(N(CC(N)=O)S(=O)(=O)c2ccc(OC)c(OC)c2)c(Cc2ccccc2Cl)c1 , would its reported IC50 be below 10 nM?
OUTPUT: F

Numbers sourced from patent US7396958B2.
